Field: cytotoxicity at 10 µM. Provide a value for each of the compounds that follow.
- protocol: Toxicity liver stage against HepG2, at 10uM
- Type: cell-based
- Parameters: test concentration 10 uM, cell line HepG2-A16-CD81EGFP
- recorded conditions: human, HepG2-A16-CD81EGFP cells; read-out: INHIBITION
Answer with a number only, understood to be in %.

compound O=C1CC(N2CCN(c3ccc(O)cc3)CC2)C(=O)N1Cc1cccs1 (centres undefined) , cytotoxicity at 10 µM observed: 5.77

compound COc1ccc(CN2C[C@@H]3C[C@H](C(=O)Nc4cccnc4)[C@H](C2)O3)cc1 , cytotoxicity at 10 µM observed: -72.4

compound COc1ccccc1[C@@H]1CN(Cc2nccn2C)C[C@H]1C(=O)O , cytotoxicity at 10 µM observed: -4.83

compound CCOCC(O)CN1CCN(C(=O)C(C)(C)CC)CC1 (centres undefined) , cytotoxicity at 10 µM observed: -20.7

compound CCn1nc(C)c2nnn(CC(=O)Nc3ccc(C)c(C)c3)c(=O)c21 , cytotoxicity at 10 µM observed: 5.75

compound Fc1ccc(-c2nc(CN3CCn4c(nnc4C4CC4)C3)co2)cc1 , cytotoxicity at 10 µM observed: -7.72

compound COCC(=O)NCC1CCN(Cc2ccsc2)CC1 , cytotoxicity at 10 µM observed: -3.88

compound COc1cc(N(C)Cc2noc(CC(C)C)n2)ncn1 , cytotoxicity at 10 µM observed: -0.71

compound CCOc1cccc(CNC2CCCN(Cc3noc(C)n3)C2)c1 (centres undefined) , cytotoxicity at 10 µM observed: -2.3

compound Cc1ccc(N2CC3(COCCN(Cc4ccccn4)C3)OCC2=O)s1 (centres undefined) , cytotoxicity at 10 µM observed: -3.49

compound CCC1CN(CC(=O)NCc2ccco2)CCO1 (centres undefined) , cytotoxicity at 10 µM observed: -7.66

compound COCCOc1ccc(NC(=O)N2CCCC2c2ccsc2)cn1 (centres undefined) , cytotoxicity at 10 µM observed: -8.33

compound O=C(O)C1(Cc2cc(-c3ccc(F)cc3)no2)CCOCC1 , cytotoxicity at 10 µM observed: -20.8

compound O=C(O)c1ccn(COc2c(Cl)cccc2Cl)n1 , cytotoxicity at 10 µM observed: 8.71
